# credit: the supplement of paper PMC9233669

Consider the following sequences; for each one, report its self-aminoacylation.
system: biotinyl-Ile-oxazolone; experiment: self-aminoacylation, catalytic enhancement (BIO) (fold over background); higher = more active; k-Seq, kA / k0A0; sequences stand for … in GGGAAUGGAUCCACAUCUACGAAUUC…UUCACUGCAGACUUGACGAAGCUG
Variants at the floor of the assay were thinned out.
Field format: numeric only.

Lab note: need self-aminoacylation with biotinyl-Ile-oxazolone for entry GGACACUUCAAGCAAUCGGUC [Fam1B.1 aminoacylation ribozyme variant] , please look it up.
2.38

Lab note: need self-aminoacylation with biotinyl-Ile-oxazolone for entry AUUACCGUGGUCCUCGAGUGA [Fam2.1 aminoacylation ribozyme variant] , please look it up.
2.57

Lab note: need self-aminoacylation with biotinyl-Ile-oxazolone for entry CUACCUAAAACAAUCGGUCUG [Fam1A.1 aminoacylation ribozyme variant] , please look it up.
0.883

Lab note: need self-aminoacylation with biotinyl-Ile-oxazolone for entry CCACACUUCUAGCAAUCGGAC [Fam1B.1 aminoacylation ribozyme variant] , please look it up.
0.941

Lab note: need self-aminoacylation with biotinyl-Ile-oxazolone for entry AUUACGCUGGUAAUCGAGUGA [Fam2.1 aminoacylation ribozyme variant] , please look it up.
2.84

Lab note: need self-aminoacylation with biotinyl-Ile-oxazolone for entry CCACAAUUCAAGAAAUCGGUC [Fam1B.1 aminoacylation ribozyme variant] , please look it up.
0.949

Lab note: need self-aminoacylation with biotinyl-Ile-oxazolone for entry AUUCACCUAGGUCGUCGAGUG [Fam2.2 aminoacylation ribozyme variant] , please look it up.
0.661

Lab note: need self-aminoacylation with biotinyl-Ile-oxazolone for entry AUUCAUCUAGGUCAUCGCGUG [Fam2.2 aminoacylation ribozyme variant] , please look it up.
7.55

Lab note: need self-aminoacylation with biotinyl-Ile-oxazolone for entry CCACACAUCAAGCAAGCGGUC [Fam1B.1 aminoacylation ribozyme variant] , please look it up.
0.968

Lab note: need self-aminoacylation with biotinyl-Ile-oxazolone for entry AUUCAGCUAGGUCAUCGGGUA [Fam2.2 aminoacylation ribozyme variant] , please look it up.
3.18

Lab note: need self-aminoacylation with biotinyl-Ile-oxazolone for entry AAGUCUGCUAAUAGUAGCAAG [Fam3.1 aminoacylation ribozyme variant] , please look it up.
0.968

Lab note: need self-aminoacylation with biotinyl-Ile-oxazolone for entry AGUAUCCUGGUCAUCGAGUGA [Fam2.1 aminoacylation ribozyme variant] , please look it up.
4.12

Lab note: need self-aminoacylation with biotinyl-Ile-oxazolone for entry AUUCACCUAGGUGAUCGGGUA [Fam2.2 aminoacylation ribozyme variant] , please look it up.
2.67

Lab note: need self-aminoacylation with biotinyl-Ile-oxazolone for entry CUCGUUCAAACAAUCGGUCUG [Fam1A.1 aminoacylation ribozyme variant] , please look it up.
1.09

Lab note: need self-aminoacylation with biotinyl-Ile-oxazolone for entry AUGUUUACUAAUAGUCGCAAG [Fam3.1 aminoacylation ribozyme variant] , please look it up.
1.67

Lab note: need self-aminoacylation with biotinyl-Ile-oxazolone for entry UAGGUUGCUAAUAGUCGCAAG [Fam3.1 aminoacylation ribozyme variant] , please look it up.
1.4

Lab note: need self-aminoacylation with biotinyl-Ile-oxazolone for entry AUUCCCCUAGGCCAUCGGGUG [Fam2.2 aminoacylation ribozyme variant] , please look it up.
8.31

Lab note: need self-aminoacylation with biotinyl-Ile-oxazolone for entry AAGUUUGCUAAUAGUGGCUAG [Fam3.1 aminoacylation ribozyme variant] , please look it up.
0.811

Lab note: need self-aminoacylation with biotinyl-Ile-oxazolone for entry ACUCACCUGGGUCAUCGGGUG [Fam2.2 aminoacylation ribozyme variant] , please look it up.
4.86

Lab note: need self-aminoacylation with biotinyl-Ile-oxazolone for entry UCACACUUCAAGCAACCGGUC [Fam1B.1 aminoacylation ribozyme variant] , please look it up.
0.984

Lab note: need self-aminoacylation with biotinyl-Ile-oxazolone for entry AAGUUUGCUAAAAGUCGGAAG [Fam3.1 aminoacylation ribozyme variant] , please look it up.
0.814

Lab note: need self-aminoacylation with biotinyl-Ile-oxazolone for entry AUUAACCUGGUCAUCGAGCGA [Fam2.1 aminoacylation ribozyme variant] , please look it up.
1.79

Lab note: need self-aminoacylation with biotinyl-Ile-oxazolone for entry CUGCUUCAAGCAAUCGGUCUG [Fam1A.1 aminoacylation ribozyme variant] , please look it up.
1.29

Lab note: need self-aminoacylation with biotinyl-Ile-oxazolone for entry AUUAGCCUGGUCAUCGAAUGA [Fam2.1 aminoacylation ribozyme variant] , please look it up.
1.36

Lab note: need self-aminoacylation with biotinyl-Ile-oxazolone for entry AUUACCCUGGUCAUCGAGUAC [Fam2.1 aminoacylation ribozyme variant] , please look it up.
2.32

Lab note: need self-aminoacylation with biotinyl-Ile-oxazolone for entry CUUCACUUAGGUCAUCGGGUG [Fam2.2 aminoacylation ribozyme variant] , please look it up.
2.82
